Source listed as ChEMBL document CHEMBL1137162.

system: THP-1; assay: inhibitory potency against human Tumor necrosis factor, alpha production in THP-1cells; assay type: functional, cell-based
Below: a set of entries, each annotated with reported IC50.
endpoint_name: IC50 (µM)

INSERT INTO assay_data (compound, target_of_assay, endpoint_name, readout_value) VALUES
  ('O=c1c(-c2ccc(F)cc2)c(-c2ccnc(Oc3ccccc3)n2)n2n1CC(N1CCOCC1)C2 (centres undefined)', 'THP-1', 'IC50', 0.313),
  ('COCC(C)Nc1nccc(-c2c(-c3ccc(F)cc3)c(=O)n3n2CC(OC)C3)n1 (racemic)', 'THP-1', 'IC50', 0.015),
  ('O=c1c(-c2ccc(F)cc2)c(-c2ccnc(NCc3cccc(F)c3)n2)n2n1CC1(C2)OCCO1', 'THP-1', 'IC50', 0.013),
  ('C[C@@H](Nc1nccc(-c2c(-c3ccc(F)cc3)c(=O)n3n2CC(O)C3)n1)c1ccccc1 (some centres undefined)', 'THP-1', 'IC50', 0.005),
  ('O=c1c(-c2ccc(F)cc2)c(-c2ccnc(Oc3ccccc3)n2)n2n1CC(N1CCNCC1)C2 (centres undefined)', 'THP-1', 'IC50', 0.5),
  ('C[C@H](Nc1nccc(-c2c(-c3ccc(F)cc3)c(=O)n3n2CC2(C3)OCCO2)n1)c1ccccc1', 'THP-1', 'IC50', 0.002),
  ('O=c1c(-c2ccc(F)cc2)c(-c2ccnc(NCc3ccccc3)n2)n2n1CC1(C2)OCCO1', 'THP-1', 'IC50', 0.011),
  ('C[C@H](Nc1nccc(-c2c(-c3ccc(F)cc3)c(=O)n3n2CC2(C3)OCCCO2)n1)c1ccccc1', 'THP-1', 'IC50', 0.012),
  ('Nc1ccc(CNc2nccc(-c3c(-c4ccc(F)cc4)c(=O)n4n3CC3(C4)OCCO3)n2)cc1', 'THP-1', 'IC50', 0.161);

----------
Below: a set of entries, each annotated with reported IC50.
system: THP-1; test: inhibitory potency against human Tumor necrosis factor, alpha production in THP-1cells; assay type: functional, cell-based
endpoint_name: IC50 (nM)

INSERT INTO assay_data (molecule, readout_value) VALUES
  ('COCC(C)Nc1nccc(-c2c(-c3ccc(F)cc3)c(=O)n3n2CC(OC)C3)n1 (single isomer, unassigned)', 20),
  ('COC[C@H](C)Nc1nccc(-c2c(-c3ccc(F)cc3)c(=O)n3n2CC2(C3)OCCCO2)n1', 36),
  ('O=c1c(-c2ccc(F)cc2)c(-c2ccnc(NCc3ccccc3)n2)n2n1CC1(C2)OCCCO1', 31),
  ('O=c1c(-c2ccc(F)cc2)c(-c2ccnc(NCc3ccc(F)cc3)n2)n2n1CC1(C2)OCCCO1', 630),
  ('O=c1c(-c2ccc(F)cc2)c(-c2ccnc(NCc3cccc(C(F)(F)F)c3)n2)n2n1CC1(C2)OCCO1', 197),
  ('Cc1ccccc1CNc1nccc(-c2c(-c3ccc(F)cc3)c(=O)n3n2CC2(C3)OCCO2)n1', 19),
  ('COC[C@H](C)Nc1nccc(-c2c(-c3ccc(F)cc3)c(=O)n3n2CC(OC)C3)n1 (some centres not stated)', 13);

----------
test system: THP-1; assay: inhibitory potency against human Tumor necrosis factor, alpha production in THP-1cells; type: functional, cell-based
Below: a set of entries, each annotated with reported log10(IC50).
endpoint_name: log10(IC50) (log10 of the value in nM)

INSERT INTO assay_data (compound, endpoint_name, readout_value) VALUES
  ('O=c1c(-c2ccc(F)cc2)c(-c2ccnc(Oc3ccccc3)n2)n2n1CC1(C2)OCCCO1', 'log10(IC50)', 1.84),
  ('C[C@H](Nc1nccc(-c2c(-c3ccc(F)cc3)c(=O)n3n2CC2(C3)OCCO2)n1)C(C)(C)O', 'log10(IC50)', 0.95),
  ('O=c1c(-c2ccc(F)cc2)c(-c2ccnc(NCc3ccc(C(F)(F)F)cc3)n2)n2n1CC1(C2)OCCO1', 'log10(IC50)', 3.00),
  ('COC[C@H](C)Nc1nccc(-c2c(-c3ccc(F)cc3)c(=O)n3n2CC2(C3)OCCO2)n1', 'log10(IC50)', 1.56),
  ('Nc1ccccc1CNc1nccc(-c2c(-c3ccc(F)cc3)c(=O)n3n2CC2(C3)OCCO2)n1', 'log10(IC50)', 2.00),
  ('Cc1ccc(CNc2nccc(-c3c(-c4ccc(F)cc4)c(=O)n4n3CC3(C4)OCCO3)n2)cc1', 'log10(IC50)', 2.47),
  ('O=c1c(-c2ccc(F)cc2)c(-c2ccnc(Oc3ccccc3)n2)n2n1CC(N1CCCC1)C2 (centres undefined)', 'log10(IC50)', 2.51),
  ('COC(=O)OC1Cn2c(-c3ccnc(Oc4ccccc4)n3)c(-c3ccc(F)cc3)c(=O)n2C1 (centres undefined)', 'log10(IC50)', 2.26),
  ('O=c1c(-c2ccc(F)cc2)c(-c2ccnc(NCc3cccnc3)n2)n2n1CC1(C2)OCCO1', 'log10(IC50)', 2.63);
